assay: Pharmacokinetics of ciprofol in rats pretreated with psoralen, clopidogrel or CMC; assay type: in vivo, rat; conditions: SD, rat, plasma, iv, 2.4 mg/kg, Control (CMC-Na), ciprofol 2.4 mg·kg^-1 i.v., T 30.00 min; rats No.1-8 and Mean
measured.property: concentration at 30 min (µg/mL)
// return numeric value only (unit: µg/mL, not printed)

Qu. Entry "CC(C)c1cccc([C@H](C)C2CC2)c1O" has what concentration at 30 min?
Ans. 0.0934

====

assay: Pharmacokinetics of ciprofol in rats pretreated with psoralen, clopidogrel or CMC; format: in vivo, rat; settings: SD, rat, plasma, iv, 27 mg/kg, Psoralen(27mg/kg)group, ciprofol 2.4 mg·kg^-1 i.v., T 12.00 min; rats No.1-8 and Mean
measured.property: concentration at 12 min

Qu. Entry CC(C)c1cccc([C@H](C)C2CC2)c1O [ciprofol] has what concentration at 12 min?
Ans. 374 ng/mL

====

assay: Pharmacokinetics of ciprofol in rats pretreated with psoralen, clopidogrel or CMC; format: in vivo, rat; conditions: SD, rat, plasma, iv, 2.4 mg/kg, Control (CMC-Na), ciprofol 2.4 mg·kg^-1 i.v., T 20.00 min; rats No.1-8 and Mean
measured.property: concentration at 20 min (ng/mL)
// return numeric value only (unit: ng/mL, not printed)

Qu. Entry "CC(C)c1cccc([C@H](C)C2CC2)c1O" has what concentration at 20 min?
Ans. 159

====

assay: Pharmacokinetics of ciprofol in rats pretreated with psoralen, clopidogrel or CMC; assay type: in vivo, rat; conditions: SD, rat, plasma, intravenous, 2.4 mg/kg, rats, Control group (0.5% CMC gavage 7 d), ciprofol 2.4 mg·kg^-1 i.v., n = 8; read-out: MRT0-t
measured.property: MRT last

Qu. Entry CC(C)c1cccc([C@H](C)C2CC2)c1O [ciprofol] has what MRT last?
Ans. 10.8 min

====

assay: Pharmacokinetics of ciprofol in rats pretreated with psoralen, clopidogrel or CMC; type: in vivo, rat; settings: SD, rat, plasma, intravenous, 2.4 mg/kg, rats, Psoralen group (27 mg·kg^-1 gavage daily 7 d), ciprofol 2.4 mg·kg^-1 i.v., n = 8
measured.property: AUC(0-inf) (ng·h/mL)
// return numeric value only (unit: ng·h/mL, not printed)

Qu. Entry CC(C)c1cccc([C@H](C)C2CC2)c1O [ciprofol] has what AUC(0-inf)?
Ans. 315

====

assay: Pharmacokinetics of ciprofol in rats pretreated with psoralen, clopidogrel or CMC; format: in vivo, rat; conditions: SD, rat, plasma, iv, 6.75 mg/kg, Clopidogrel(6.75mg/kg)group, ciprofol 2.4 mg·kg^-1 i.v., T 60.00 min; rats No.1-8 and Mean
measured.property: concentration at 60 min (ng/mL)
// return numeric value only (unit: ng/mL, not printed)

Qu. Entry CC(C)c1cccc([C@H](C)C2CC2)c1O [ciprofol] has what concentration at 60 min?
Ans. 43.3

====

test: Pharmacokinetics of ciprofol in rats pretreated with psoralen, clopidogrel or CMC; format: in vivo, rat; settings: SD, rat, plasma, intravenous, 2.4 mg/kg, rats, Control group (0.5% CMC gavage 7 d), ciprofol 2.4 mg·kg^-1 i.v., n = 8; read-out: CL (converted)
measured.property: clearance (mL/min/kg)
// return numeric value only (unit: mL/min/kg, not printed)

Qu. Entry CC(C)c1cccc([C@H](C)C2CC2)c1O [ciprofol] has what clearance?
Ans. 152
